test: chemical genetic growth profiling, strain panel (AID 1159580);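 also: tested at 20 µM; growth read once vehicle control cultures reached saturation at 30 °C; 1 = growth at the plate median or of vehicle wells; lower values mean less growth of the strain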; details: S. cerevisiae deletion strains, growth OD, locus YKL160W, strain elf1, stronger effect = lower value
The whole screen tested about 5,500 compounds, of which about 2,000 (36%) were called active. Not shown: some 18% with an inconclusive outcome. This is one part of the list.
// boundary case: normalized growth equal to 1 maps to F; strictly smaller maps to T

- compound: "COc1ccc2oc3ccccc3c(=O)c2c1"
  assigned-category: "T"
- compound: "COc1ccc(-c2oc3cc(OC)c(OC)c(OC)c3c(=O)c2OC)cc1"
  assigned-category: "T"

Field: next compound
Q: Dear reviewer, please state whether "NCCCNCCSP(=O)(O)O" has normalized growth strictly beneath 1.
Result: T

----------
assay: chemical genetic growth profiling, strain panel (AID 1159580); settings: S. cerevisiae deletion strains, growth OD, locus YHR142W, strain chs7, stronger effect = lower value
Among all 5,500 compounds or so, about 2,000 (36%) were called active. Not shown: some 18% with an inconclusive outcome. The list shows a part of the results.
measurement-label: normalized growth
Give bare numbers.

Field: normalized growth. Fill in for each record below.
1. CC(=O)O[C@]1(C)CC[C@@]23CC1C(C)(C)[C@@H]2CC[C@H]3C
2. COC(=O)/C(C)=C\CC12OC(C)(C)C3CC(C=C4C(=O)c5c(OC)c6c(c(CC=C(C)C)c5OC431)OC(C)(CCC=C(C)C)C=C6)C2=O (stereo not drawn)
3. Cc1cccc(C)c1NC(=O)C1CCCCN1C (stereo not drawn)

Result:
0.967
1.04
0.987

----------
test: chemical genetic growth profiling, strain panel (AID 1159580); conditions: S. cerevisiae deletion strains, growth OD, locus YNL207W, strain RIO2, stronger effect = lower value
Out of some 5,500 compounds screened, about 2,000 (36%) were called active. Another 18% or so got no clear call; they are omitted. The list shows a part of the results.
measurement-label: normalized growth
Numbers only.

Worked examples, 5 compounds total:
- compound: "O=S(=O)(NCc1ccc(C(F)(F)F)cc1)c1cc(Br)c(Br)s1"
  observed-result: 0.977
- compound: "Cc1c(S(=O)(=O)Nc2cccc([N+](=O)[O-])c2)sc2ccc(Cl)cc12"
  observed-result: 0.983
- compound: "O=S(=O)(NCc1ccc(C(F)(F)F)cc1)c1cccc(C(F)(F)F)c1"
  observed-result: 0.987
- compound: "Clc1cccc(Nc2ncc(-c3ccc4c(c3)OCCCO4)s2)c1"
  observed-result: 0.987
- compound: "O=C(Nc1cc(C(F)(F)F)cc(C(F)(F)F)c1)C(Cl)(Cl)Cl"
  observed-result: 0.955

Field: normalized growth. Fill in for each record below.
1. CC1CCC(C(C)C)C(N(Cc2ccccc2)C(=O)c2ccccc2)C1 (stereo not drawn)
2. FC(F)(F)c1cc(NC(=S)SCCSC(=S)Nc2cc(C(F)(F)F)cc(C(F)(F)F)c2)cc(C(F)(F)F)c1
3. CC1C(c2ccccc2)N(C)C(c2ccccc2)CC1(O)c1ccc(F)cc1 (stereo not drawn)
4. O=C(Nc1ccncc1)c1cc(-c2ccccc2)oc1C(F)(F)F
5. Cc1ccccc1/C=C/c1c[nH]c2ccccc12
6. Clc1ccc(CSc2nccn2-c2cc(Cl)ccc2Cl)cc1
7. Nc1ccccc1C(=O)Nc1cc(C(F)(F)F)cc(C(F)(F)F)c1

Result:
[0.979, 0.987, 0.999, 0.98, 0.948, 0.965, 0.963]

Entry "Cn1nccc1-c1cc(Cl)cc(Cl)c1O" — recorded normalized growth = 0.948

----------
experiment: chemical genetic growth profiling, strain panel (AID 1159580);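 also: tested at 20 µM; growth read once vehicle control cultures reached saturation at 30 °C; 1 = growth at the plate median or of vehicle wells; lower values mean less growth of the strain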; details: S. cerevisiae deletion strains, growth OD, locus YEL061C, strain CIN8
In all, about 5,500 compounds went through this assay and about 2,000 (36%) were called active. Another 18% or so got no clear call; they are omitted. Cut-off read from the data, not from the text of the source: active = normalized growth mostly below about 0.91 (no sharp cut-off); inconclusive = no clear call, values can overlap the other calls; inactive = mostly above about 0.92. This is one part of the list.
Could you please pick one outcome from this set? active, inactive

Previously resolved entries follow.
- molecule: "COc1ccc2oc3ccccc3c(=O)c2c1"
  assigned-category: "active"
- molecule: "Nc1ccc(Oc2ccc(Cl)cc2C2CCCCC2)nc1"
  assigned-category: "active"
- molecule: "Clc1ccc(COC(Cn2ccnc2)c2ccc(Cl)cc2Cl)c(Cl)c1 (stereo not given)"
  assigned-category: "active"
- molecule: "Cc1oncc1C(=O)Nc1ccc(C(F)(F)F)cc1"
  assigned-category: "inactive"

Q: Please state the recorded outcome for this molecule: "COc1ccc2oc(-c3ccccc3)c(OC)c(=O)c2c1"
Result: inactive

Q: Please state the recorded outcome for this molecule: "CCCNC(=O)NS(=O)(=O)c1ccc(Cl)cc1"
Result: inactive

Q: Please state the recorded outcome for this molecule: "COc1cc(OC)c2c(=O)cc(-c3ccccc3)oc2c1"
Result: inactive

Q: Please state the recorded outcome for this molecule: "O=C1CCCN1CC#CCN1CCCC1"
Result: inactive

Q: Please state the recorded outcome for this molecule: "CCc1cccc(C)c1NC(=O)CC(C)(C)CC(=O)O"
Result: inactive

Q: Please state the recorded outcome for this molecule: CC(=O)NC(CCC(=O)O)C(=O)O (stereo not given)
Result: inactive

Q: Please state the recorded outcome for this molecule: C=NC(C(=O)NC1C(=O)N2C1SC(C)(C)C2C(=O)O)c1ccccc1 (stereo not given)
Result: inactive

Q: Please state the recorded outcome for this molecule: O=c1cccc2n1CC1CC2CN2CCCC[C@@H]12 (stereo not given in full)
Result: inactive

Q: Please state the recorded outcome for this molecule: "CN1CCC[C@@H]1CCO[C@](C)(c1ccccc1)c1ccc(Cl)cc1"
Result: inactive

Q: Please state the recorded outcome for this molecule: Clc1ccc(CSC(Cn2ccnc2)c2ccc(Cl)cc2Cl)cc1 (stereo not given)
Result: active

Q: Please state the recorded outcome for this molecule: "O=C(CN1CCOCC1)Nc1cc(C(F)(F)F)cc(C(F)(F)F)c1"
Result: inactive

Q: Please state the recorded outcome for this molecule: "O=C(O)CCCCCCCC(=O)O"
Result: inactive

Q: Please state the recorded outcome for this molecule: Clc1ccc(COC(Cn2ccnc2)c2ccc(Cl)cc2Cl)cc1 (stereo not given)
Result: active

Q: Please state the recorded outcome for this molecule: "FC(F)(F)c1ccc2[nH]c(=S)[nH]c2c1"
Result: inactive

Q: Please state the recorded outcome for this molecule: CC1CCC(NC(=O)N(CCCl)N=O)CC1 (stereo not given)
Result: inactive

Q: Please state the recorded outcome for this molecule: Cc1cccc(C)c1NC(=O)C1CCCCN1C (stereo not given)
Result: inactive

Q: Please state the recorded outcome for this molecule: CNc1ccc(C(=O)CC(O)CCC(C)C2OC(=O)CC(O)CC(=O)CC(O)CC(O)CC(O)CC(O)CC3(O)CC(O)C(C(=O)OC)C(CC(OC4OC(C)C(O)C(N)C4O)/C=C/C=C/C=C/C=C/C=C/C=C/C=C/C2C)O3)cc1 (stereo not given)
Result: active

Q: Please state the recorded outcome for this molecule: NC(C(=O)O)C(O)C(=O)O (stereo not given)
Result: inactive

Q: Please state the recorded outcome for this molecule: "NC(N)=NCCCCN=C(N)N"
Result: inactive

Q: Please state the recorded outcome for this molecule: "CC(C)(CC(=O)O)CC(=O)Nc1cc(C(F)(F)F)cc(C(F)(F)F)c1"
Result: inactive

Q: Please state the recorded outcome for this molecule: "COc1ccc(-c2cc(=O)c3c(OC)cc(OC)cc3o2)cc1"
Result: inactive

Q: Please state the recorded outcome for this molecule: COc1ccc(CCC(=O)c2c(O)cc(O[C@@H]3O[C@H](CO)C(O)[C@H](O)C3O[C@@H]3O[C@@H](C)[C@H](O)[C@@H](O)[C@H]3O)cc2O)cc1O (stereo not given in full)
Result: inactive

Q: Please state the recorded outcome for this molecule: "COc1ccc2c(=O)c(OC)c(-c3ccccc3)oc2c1"
Result: active

Q: Please state the recorded outcome for this molecule: CCOC(=O)C(O)(c1ccc(N)c(C)c1)C(F)(F)F (stereo not given)
Result: inactive

----------
Can you tell me normalized growth for the items I'm about to list?
assay: chemical genetic growth profiling, strain panel (AID 1159580);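 also: tested at 20 µM; growth read once vehicle control cultures reached saturation at 30 °C; 1 = growth at the plate median or of vehicle wells; lower values mean less growth of the strain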; details: S. cerevisiae deletion strains, growth OD, locus YDR477W, strain SNF1, stronger effect = lower value
The campaign covered roughly 5,500 compounds. About 2,000 (36%) were called active. Not shown: some 18% with an inconclusive outcome. The list shows a part of the results.
Numbers only.

- given-smiles: "O=S(=O)(Nc1csc(C(F)(F)F)c1-c1ccccc1)c1cc(Br)c(Br)s1"
  normalized growth: 0.91

Field: normalized growth. Fill in for each record below.
1. O=S(=O)(NCc1cc(Cl)cc(Cl)c1)c1cc(C(F)(F)F)cc(C(F)(F)F)c1
2. Cc1noc(C)c1S(=O)(=O)Nc1csc(C(F)(F)F)c1-c1ccccc1

Result:
1. 0.912
2. 1.04

Entry "Clc1ccc(CSc2nccn2-c2cc(Cl)ccc2Cl)cc1" — recorded normalized growth = 0.888

----------
test: chemical genetic growth profiling, strain panel (AID 1159580);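 also: tested at 20 µM; growth read once vehicle control cultures reached saturation at 30 °C; 1 = growth at the plate median or of vehicle wells; lower values mean less growth of the strain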; conditions: S. cerevisiae deletion strains, growth OD, locus YNL209W, strain ssb2, stronger effect = lower value
Screen size: about 5,500 compounds; about 2,000 (36%) were called active. Inconclusive results (about 18%) are left out. This is one part of the list.
Can you tell me normalized growth for the items I'm about to list?
Answers are plain numbers.

Worked examples, 3 compounds total:
- compound: "CC1[C@H](C)OC(=O)CC(O)CC(O)CC(O)CCC(O)C(O)C[C@]2(O)CC(O)C(C(=O)O)C(CC(OC3O[C@H](C)[C@@H](O)[C@H](N)[C@@H]3O)/C=C/C=C/C=C/C=C/CC/C=C/C=C/[C@H](C)[C@H]1O)O2 (some centres not stated)"
  normalized growth: 0.816
- compound: "CN1CCC[C@@H]1CCO[C@](C)(c1ccccc1)c1ccc(Cl)cc1"
  normalized growth: 0.877
- compound: "Cc1ccc(C(=O)c2ccc(CC(=O)O)n2C)cc1"
  normalized growth: 1.02

Field: normalized growth. Fill in for each record below.
1. COC1C=CC23c4cc5c(cc4CN(CC2O)[C@@H]3C1)OCO5 (some centres not stated)
2. COc1ccc(CCC(=O)c2c(O)cc(O[C@@H]3O[C@H](CO)C(O)[C@H](O)C3O[C@@H]3O[C@@H](C)[C@H](O)[C@@H](O)[C@H]3O)cc2O)cc1O (some centres not stated)
3. CC1OC(O[C@H]2/C=C/C=C/C=C/C=C/C=C/C=C/C=C/[C@H](C)[C@@H](O)[C@@H](C)[C@H](C)OC(=O)CC(O)CC(O)CCC(O)C(O)CC(O)C[C@]3(O)C[C@H](O)C(C(=O)O)C(C2)O3)C(O)[C@H](N)C1O (some centres not stated)

Result:
0.981
1.01
0.993

Entry "O=c1oc2ccccc2cc1O" — recorded normalized growth = 0.998

Taken from PubChem BioAssay AID1159580.
